experiment_description: soluble on expression in E. coli; label from the status in PepcDB or PDB records
assay_metric: soluble on expression in E. coli

// worked examples, soluble on expression in E. coli included
seq_string=MSLTIYGVYRSRATRTLWLAAELGIEFKHVPVIQARRLADPLATDAPLNTLSPAFLAVNPMGTIPCIEDDGMVLYESMAINLYLARKYGGPLAPVDLKEDAAMLQWSFFAATEIETNSLKISSAIAEGLAESDAGKAVIDVAARLLKRPLRVLEQHLATHDYLVGDRFTVADLNVAEIVRYAQGHQPLFDAHPALKAWLARCQARTAFKSMWDSRTAEGHHHHHH val=soluble
seq_string=MGSDKIHHHHHHADDSYLIDGGKANPYYNGNMMQYLESRPDYFKDLVEVIRLSGMEDVFEDEQITFFAPTDWSIRGSFNYLNRIWYRMGHDSIKSFSQIKPEVWREMLSMYIVKDKYLLKDIPQIDTTAIAAYPGQAFLSYGQQPMNMGVVYYDANNVKYAGARQIIYSYVYDFTIGDMKNAYVATSDIQPTNGVVHVLRLTDHAFGFEPYLFATKAINATIETEPDN val="not soluble"
seq_string=MSLAVLPDVPKSKDMKHRPRFLPSIGPMKKRVAFFSGCLMDTMFLPTNNATLKLLQLAGCDIVIPPEQACCGALHGHSGEKNTGKELAKQNIAAFEALDVDAVITNAGGCGAFLTEYDHLLKDDPEWSERAAAFVQKLKDFSSVLVELDFHQMDLALETPQVVTYQDSCHLRNVMHTSLEPRQLLKSIKGAEFKEMEKADSCCGSAGIYNIVEVEMSMKILDSKMAAVKATEAILIVTANPGCLLQMKLGIEREGLSGKVRAVHLADLLLEAAGHKTSEGHHHHHH val=soluble
seq_string=LGGVFKKAGSKGLKGVRLVISDAHEGLKAAIKKILTGSAWQRCRVHFMRNVLSQVPKHYQGMVSSIIRTIFAQNDQESAREQLRHVVDELKNRFPKAMKILEEAEEEILAYMAFPREHWAQIHSTNPLERLNREIRRRTDVVCIFPNREAVIRLVGAMLMEQNDEWKVGRRYFSLESMSKITSINEFTLTPVALLHK val=soluble

What does the data say about its soluble on expression in E. coli? Entry: `ADDPIRMYFEPGHYTVMENCGEFEVRVVRRGDISTYASVEYETQDGTASAGTDFVGRKGLLSFPPGVDEQRFRIEVIDDDVFEEDECFYIRLFNPSEGVKLAVPMIATVMILDDDHAGIFAFTDSVFEITESVGRFE`
soluble

What does the data say about its soluble on expression in E. coli? Entry: `MDRVDVVADLNDPLSCFPDDSVIEIYAHHVLEHVRNFIQLMQEVHRVCMRDSTVTIVVPHYSNQLAYSDPTHVRFFGLYTMCYFVERVFQPFKRKVPDFYIKEKFLLCEVVYDFEPKNTFLGRLFTRRVQLFINANPKRQEFYERYLCRFFPVASVRYVLSPVKLEHHHHHH`
soluble

What does the data say about its soluble on expression in E. coli? Entry: `GPGSMPPRRKSECLSSYAVDTTPSFQDEKFIEQLLHFVGANDEVSLLTMTAVALGAECYQVDLGQQIVVDARLDFINFCAKQGYCAAKVVHLLKWLCTFQERVEDGCNTQEMQEEVIAFVTSEVEEEWKWKRALQAEEALWEVQSSSKTSARRGHRAAEKVVEETEAVSTVPKENIYLQREDIGPFSTWLIQGIVQHASLYHYVATHARMVGEPEEFNYFLEVPVSAPPLRNALAPESVPQEPPLAKAQQDVEEQRASELETYKKEYEEAMALEQLRLQTIQNERDMKVFIENEGSMRAVEDTYESLQVDLSKRQRQILERITAAEKALGIFPFVQPQ`
not soluble

----------
experiment_description: soluble on expression in E. coli; label from the status in PepcDB or PDB records
assay_metric: soluble on expression in E. coli

// worked examples, soluble on expression in E. coli included
seq_string=MTTQQKKSSTRQGFKTGESIVYPAHGVGQIVAIEEQEVAGMKLELFVIDFEKDKMRLKVPVAKAVGIGMRKLSETDFVDRALKVVQGKARVKRTMWSRRAQEYDAKINSGDLISIAEVVRDLYRAENQPEQSYSERQLYEAALDRMAREIAAVNRMSETEAVRLVEANLNKGPKRGKAIEEDDAQDEAA val="not soluble"
seq_string=MGSDKIHHHHHHKNTDLVAEDSICFPIDEHTYYASKSIFQFEENGHEYLSFLDAEYSQKINIYDIKNQKLIKTILLQKEGPNGMNVLSGCHPLNLNHFIITSWNGTFSLVNDKGEIEKKFDFWEKGVNFQEFDHISFSSYSYKPAIIKDSILYFSQSFLKHPRKKSDWNKIPMFAFANLNTGKTGWSELRYPLIFNKDEDFKNVKLYDPEICYTYTGKDVVISLGQYDSIMVSSDFKHKISYNAKSRYLAHAYPHLQDGQIDLFKNIQIQGKLPHYSHLMYDKYRKVFYRFALMPDDNIKPFSNNPHQSFSIIILNKDYEIIGETKFPGNTYTHHLCFVGKKGLYISENNENNPQFDENKLVFRCFTLQDRKK val="not soluble"
seq_string=MGSDKIHHHHHHMSNNLLVLQSDFGLVDGAVSAMIGVALQEAPTLGIHNLTHEITPYNIFEASYRLFQTVEYWPQGTTFVSVVDPGVGSDRKSVVALTSRNQYIVTPDNGTLSYIKKHVGIKAVREISEIENRRRNTELSYTFHGRDVYAFTGAKLASDHISFEEVGPELAIESIVELPVVETVIEDNLVRGAVDILDVRFGSLWTSITREEFYTLKPEFNDRFEVTIYNNDMLVYQNQVTYGKSFAAVRIGQPIIYINSLYRVGVAINQGSFANAYNVGVGPQWRIEIKKLN val="not soluble"
seq_string=MRFAVLGSGSQGNGTLIVSADTCVLVDCGFSLRETERRLLRLGVDPAQLSAILVTHEHADHVHGVGLLSRRYNLPVYLSQGTLRGMRKPVEVAGFVRGGESLQIGALRIDVIAVAHDAQEPTQFVFSDGQRRFGLLTDLGSYCAGVLDGYRGLDALMIEANHCRDRLARGYYPYFLKQRVGGDLGHLNNHQAASLVAELGWQDLQHLVLAHLSSKNNLPQLARQCFVDTLGCDPDWLQLADQDSGLDWRHIALEHHHHHH val="not soluble"

Now let's try a different one.
What does the data say about its soluble on expression in E. coli? Entry: `MANNLMSGIIAQQPPIEAESDVHVVKSRLEWGEPAFTILDVRDRSIYNEGHIMGAMSMPIDELTERAAISLDTSRDIYIYGTNDGQTTQAAQILRSAGFKNVSQLKGGFGAWKAIGGATEGIIESRTPAAADDYNVVSRIQNHIETQQK`
not soluble

----------
experiment_description: soluble on expression in E. coli; label from the status in PepcDB or PDB records
assay_metric: soluble on expression in E. coli

seq_string=MGSDKIHHHHHHMSESWVAVTGATGFIGNALLQSLIKEGWKVRALTRRARVDDESTQWIEGDLHDRDALRKLVTGVSAVVHCAGQVRGSSLESFVRTNVEGTANLMQASLEQNPPPRFLLVSSLAARQPELSWYATSKHMAERLIDERSAGMACAIFRPTAVYGPGDKEMSPLFRITRRGILPMVGQPEMRFGLLHVADLVAAITCWLSTAVPVQGTYELDDGMPGGYDSQAVATIAQEVWKRPVRCVFFPAPLVSLIANINLWSARMLSYSPMLTPGKVRELRHPDWVCDIDPLTRALPGWRPCIHLRDALPQAV val="not soluble"
seq_string=MTLRTKDGLTLYTRRWDVESPRAVICLVHGLGEHSGRYEHVARFFNENGISFAAFDLRGHGRSEGKRGHAEYQQLMDDITLFLQSLDYDCPKILYGHSMGGNLALNYILRYDPDIAGGIISAPFLALPKELPKHLFFILKLLNVVAPSIQLSNGIDPNLISRDREVVEAYVSDPLVHDKISPRFILQSLEAGKWALENADRLRKPILLIHGTADQITSYRASQEFAKRAGELCKFVSYEGFYHEPHNEPEKERVLADMLKWIEEVI val="not soluble"

----------
experiment_description: soluble on expression in E. coli; label from the status in PepcDB or PDB records
assay_metric: soluble on expression in E. coli

seq_string=MGSDKIHHHHHHMKNDKNLLQHFSREEREFVEKIMDMCQQVEDTYSYRLTHFLHPRQDEIVCKIANYYQLQTFSSRDLVSTEHSRVIIAPTYYELDIKHFELTALHLSYARKFHTLSHSQVLGTFLNQLGIKREYLGDILIDDERLIVFIDQKFGQIALQSITKVARVPVKGKEEEWTTVRLPIGQEWRSKDVLVSSMRLDKLISVAFNLSRATANKLIEAGHVKLDYVLTEQTSKLVEIGQLISVRRYGRVRLNEFLGFSKQGKIKLKLDIVKT assay_metric="soluble on expression in E. coli" val="not soluble"
seq_string=MGSDKIHHHHHHMMDTVKNRRTIRKYQQKDITPDLLNDLLETSFRASTMGGMQLYSVVVTRDAEKKEILSPAHFNQPMVKEAPVVLTFCADFRRFCKYCQERNAVPGYGNLMSFLNAAMDTLLVAQTFCTLAEEAGLGICYLGTTTYNPQMIIDALHLPELVFPITTVTVGYPAESPKQVDRLPIEGIIHEESYHDYTAEDINRLYAYKESLPENKLFIEENQKETLPQVFTDVRYTKKDNEFMSENLLKVLRRQGFMD assay_metric="soluble on expression in E. coli" val="not soluble"
